Numbers sourced from paper PMC12396409.

test system: P. falciparum 3D7 parasites; assay: P. falciparum growth inhibition assay, 2-cycle (120 h treatment), delayed-death screen and dose-response; format: cell-based, Plasmodium falciparum; conditions: library screen at 2 μg/mL, 120 h, % growth, replicate 2
Item-by-item account of Pf_120h_%Growth_Rep2
Your answer is read as %, so omit the unit and give the number.

See these solved cases before continuing.
1. C=C1[C@@H](C)[C@H]2[C@H](Cc3ccccc3)NC(=O)[C@]23[C@H](OC(C)=O)[C@@H]2O[C@H]2[C@@](C)(O)C(=O)[C@@H](C)C/C=C\[C@H]3[C@@H]1O [Epoxycytochalasin D, 19,20-] :: -0.52
2. CC(CCCCCCCCCCCCCCOC1OC(CO)C(O)C(O)C1O)C(O)=C1C(=O)C(C)N(C)C1=O (centres unmarked) [Epicoccamide] :: 97.01
3. C=C1CCO[C@]2([C@@H](O)[C@@](C)(O)COC(=O)c3ccccc3)NC(=O)[C@@]1(O)NC2=O [Bicyclomycin benzoate] :: 99.84
4. CC(=O)O[C@@H]1C[C@]2(C)[C@@]3(CO)[C@H](O)C(=O)C(C)=C[C@H]3O[C@H]1[C@@]21CO1 [Acetyldeoxynivalenol, 3-] :: 5.88

CC1=CCCC(C)C(O)C(C)C(O)CCC=CC(C)C(O)C=CC(C)C(O)C(C)=CC(O[C@H]2O[C@H](CO)[C@@H](O)[C@H](O)[C@@H]2O)C(O)CC(O)CC(O)CC(O)C(C)C(O)C(C)C(O)CC(O)CC(O)C=CCC(C(C)C(O)CCCN)OC1=O (some centres unmarked) [Desertomycin A] has a reported Pf_120h_%Growth_Rep2 of 101.55
